# Read-out: Urokinase-type plasminogen activator receptor (uPAR), PLAUR (gene 5329)
# Assay Summary: BSK_CASM3C_uPAR: BioMAP Diversity Plus: CASM3C Assay for Urokinase-type plasminogen activator receptor (uPAR) Biomarker Activity (AID 2283054);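 also: cell-surface uPAR protein level quantified by ELISA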
# Experimental Setup: primary human coronary artery smooth muscle cells; actives raise or lower the signal
The source made the active and inactive calls. The calls were made as follows: active = hit-call score of the fitted dose curve at least 0.9, where 1 is the maximum; inactive = score below 0.9.
Outcome codes: active, inactive

[[record]]
molecule = "COc1nn(CSP(=S)(OC)OC)c(=O)s1"
class = "inactive"

[[record]]
molecule = "CC(C)OC(=O)Nc1cccc(Cl)c1"
class = "inactive"

[[record]]
molecule = "N#CN"
class = "inactive"

[[record]]
molecule = "COP(=O)(OC)OC=C(Cl)Cl"
class = "inactive"

[[record]]
molecule = "C[C@H]1[C@H](c2ccc(Cl)cc2)SC(=O)N1C(=O)NC1CCCCC1"
class = "inactive"

[[record]]
molecule = "CCN(CC)C(=O)SCc1ccc(Cl)cc1"
class = "inactive"

[[record]]
molecule = "CNC(=O)Oc1cccc(N=CN(C)C)c1"
class = "inactive"

[[record]]
molecule = "CCOc1nc(NC)nc(NC(=O)NS(=O)(=O)c2ccccc2C(=O)OC)n1"
class = "inactive"

[[record]]
molecule = "O=C1c2ccccc2C(=O)N1SC(Cl)(Cl)Cl"
class = "active"

[[record]]
molecule = "O=[N+]([O-])/N=C1\\NCCN1Cc1ccc(Cl)nc1"
class = "inactive"

[[record]]
molecule = "CCC(C)(C)C(=O)OC1=C(c2ccc(Cl)cc2Cl)C(=O)OC12CCCCC2"
class = "inactive"

[[record]]
molecule = "CCOC1Oc2ccc(OS(C)(=O)=O)cc2C1(C)C (centres undefined)"
class = "inactive"

[[record]]
molecule = "N#Cc1c(Cl)c(Cl)c(Cl)c(C#N)c1Cl"
class = "active"

[[record]]
molecule = "Clc1ccccc1-c1nnc(-c2ccccc2Cl)nn1"
class = "inactive"


====

# Assay Summary: BSK_KF3CT_SRB: Viability Assessment in the BioMAP Diversity Plus: KF3CT Assay (AID 2283069);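 also: total protein by sulforhodamine B staining as a cytotoxicity measure; read 24 h after compound addition; fitted for both signal gain and loss against DMSO baseline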
# Experimental Setup: primary human keratinocytes with fibroblasts
Calls of active or inactive are those of the source. How the source made its calls: active means hit-call score of the fitted dose curve at least 0.9, where 1 is the maximum; inactive means score below 0.9.
Labels: active, inactive

[[record]]
compound = "CNC(=O)CSP(=S)(OC)OC"
class = "inactive"

[[record]]
compound = "CC(C)N(C(=O)COc1nnc(C(F)(F)F)s1)c1ccc(F)cc1"
class = "inactive"

[[record]]
compound = "O=C(O)CCCOc1ccc(Cl)cc1Cl"
class = "inactive"

[[record]]
compound = "O=C(O)COc1ccc(Cl)cc1Cl"
class = "inactive"

[[record]]
compound = "O=[N+]([O-])/N=C1\\NCCN1Cc1ccc(Cl)nc1"
class = "inactive"

[[record]]
compound = "COC(=O)c1ccccc1S(=O)(=O)NC(=O)Nc1nc(C)nc(OC)n1"
class = "inactive"

[[record]]
compound = "CC(C)OC(=O)Nc1cccc(Cl)c1"
class = "inactive"

[[record]]
compound = "CCOCN(C(=O)CCl)c1c(C)cccc1CC"
class = "inactive"

[[record]]
compound = "COP(=S)(OC)Oc1ccc([N+](=O)[O-])cc1"
class = "inactive"

[[record]]
compound = "C#CCN1C(=O)COc2cc(F)c(N3C(=O)C4=C(CCCC4)C3=O)cc21"
class = "inactive"

[[record]]
compound = "[2H]C1([2H])[n+]2ccccc2-c2cccc[n+]2C1([2H])[2H]"
class = "inactive"

[[record]]
compound = "CNC(=O)Oc1cccc(N=CN(C)C)c1"
class = "inactive"

[[record]]
compound = "CCC(C)(NC(=O)c1cc(Cl)c(C)c(Cl)c1)C(=O)CCl (stereo not given)"
class = "active"

[[record]]
compound = "COC(=O)c1ccccc1CS(=O)(=O)NC(=O)Nc1nc(OC)cc(OC)n1"
class = "inactive"

[[record]]
compound = "CNC(=O)Oc1ccccc1OC(C)C"
class = "inactive"

[[record]]
compound = "ClC1C(Cl)C(Cl)C(Cl)C(Cl)C1Cl (stereo not given)"
class = "inactive"

[[record]]
compound = "COc1cc(OC)nc(NC(=O)NS(=O)(=O)c2cc(NC=O)ccc2C(=O)N(C)C)n1"
class = "inactive"

[[record]]
compound = "CCCN(CCOc1c(Cl)cc(Cl)cc1Cl)C(=O)n1ccnc1"
class = "inactive"

[[record]]
compound = "CC(C)(C)C(O)C(Oc1ccc(Cl)cc1)n1cncn1 (stereo not given)"
class = "inactive"

[[record]]
compound = "Clc1ccccc1-c1nnc(-c2ccccc2Cl)nn1"
class = "inactive"

